Assay: Percent conversion of compound in human liver fraction after 60 min of administration
Type: ADME, tissue-based
Conditions: read-out: Conversion
result_type: metabolised at 1 h
Hey, just the number and the unit after it is fine.

Quick one: metabolised at 1 h of CC(C)(c1nc(-c2ccccc2)c(C(=O)OCCOc2ccccc2)s1)c1c(Cl)cc(-n2ncc(=O)[nH]c2=O)cc1Cl ?
73%

Given the entry C#CCOC(=O)c1sc(C(C)(C)c2c(Cl)cc(-n3ncc(=O)[nH]c3=O)cc2Cl)nc1-c1ccccc1 , report its measured metabolised at 1 h.
55%

Tell me the measured metabolised at 1 h of CC(C)COC(=O)c1sc(C(C)(C)c2c(Cl)cc(-n3ncc(=O)[nH]c3=O)cc2Cl)nc1-c1ccccc1 , please.
80%

Which metabolised at 1 h value belongs to CC(C)(c1nc(-c2ccccc2)c(C(=O)OCCc2ccccc2)s1)c1c(Cl)cc(-n2ncc(=O)[nH]c2=O)cc1Cl ?
94%

Entry CC(C)OC(=O)c1sc(C(C)(C)c2c(Cl)cc(-n3ncc(=O)[nH]c3=O)cc2Cl)nc1-c1ccccc1 : reported metabolised at 1 h = ?
10%

----------
System: PBL
Assay: Percent inhibition of interleukin-5 production in human whole blood assay after 10e-6 M treatment
Format: functional
result_type: Inhibition (%)
Only the number, expressed in %, is required.

Could you share which Inhibition value was measured for CC(C)(c1nc(-c2ccccc2)c(C(=O)O)s1)c1c(Cl)cc(-n2ncc(=O)[nH]c2=O)cc1Cl ?
0

I would be grateful if you could share the reported Inhibition for CC(C)=CCOC(=O)c1sc(C(C)(C)c2c(Cl)cc(-n3ncc(=O)[nH]c3=O)cc2Cl)nc1-c1ccccc1 .
73

What does the record list as Inhibition for COC(=O)c1sc(C(C)(C)c2c(Cl)cc(-n3ncc(=O)[nH]c3=O)cc2Cl)nc1-c1ccccc1 ?
93

Value lookup for Inhibition; key = C#CCOC(=O)c1sc(C(C)(C)c2c(Cl)cc(-n3ncc(=O)[nH]c3=O)cc2Cl)nc1-c1ccccc1
90

Data request, read-out Inhibition, for CC(C)COC(=O)c1sc(C(C)(C)c2c(Cl)cc(-n3ncc(=O)[nH]c3=O)cc2Cl)nc1-c1ccccc1
90

----------
System: PBL
Experiment: Percent inhibition of interleukin-5 production in human whole blood assay after 10e-6 M treatment
Format: functional
result_type: Inhibition (%)
Just the number in %, nothing appended.

Would you mind telling me what Inhibition value was observed for C=CCOC(=O)c1sc(C(C)(C)c2c(Cl)cc(-n3ncc(=O)[nH]c3=O)cc2Cl)nc1-c1ccccc1 ?
96

Report Inhibition for CC(C)(c1nc(-c2ccccc2)c(C(=O)OCC2CC2)s1)c1c(Cl)cc(-n2ncc(=O)[nH]c2=O)cc1Cl please.
92

What does the record list as Inhibition for CC(C)(c1nc(-c2ccccc2)c(C(=O)OCC(F)(F)F)s1)c1c(Cl)cc(-n2ncc(=O)[nH]c2=O)cc1Cl ?
92

// query Inhibition value for entry CC(=O)COC(=O)c1sc(C(C)(C)c2c(Cl)cc(-n3ncc(=O)[nH]c3=O)cc2Cl)nc1-c1ccccc1
85

Any idea what Inhibition was measured for CC(C)(c1nc(-c2ccccc2)c(C(=O)OCCO)s1)c1c(Cl)cc(-n2ncc(=O)[nH]c2=O)cc1Cl ?
93

Could you tell me which Inhibition is on file for CC(C)(c1nc(-c2ccccc2)c(C(=O)OCCc2ccccc2)s1)c1c(Cl)cc(-n2ncc(=O)[nH]c2=O)cc1Cl ?
88

Value lookup for Inhibition; key = CC(C)(c1nc(-c2ccccc2)c(C(=O)OCC#N)s1)c1c(Cl)cc(-n2ncc(=O)[nH]c2=O)cc1Cl
91

Looking for the measured Inhibition of CCCCCOC(=O)c1sc(C(C)(C)c2c(Cl)cc(-n3ncc(=O)[nH]c3=O)cc2Cl)nc1-c1ccccc1 , can you help?
91
